- Test system: PSMA-expressing LNCAP cancer xenografts
- experiment-description: Biodistribution of ^68Ga-labeled PSMA-targeting tracers
- Format: in vivo, mice
- measurement-context: 1 h post-injection
metric: Tissue (% ID/g): Tumor

Below, 2 compounds whose answers are already recorded.
>  <compound>
O=C([O-])CN1CCN(CC(=O)[O-])CCN(CC(=O)NC[C@H]2CC[C@H](C(=O)N[C@@H](Cc3ccc4cc5ccccc5cc4c3)C(=O)NCCCC[C@H](NC(=O)N[C@@H](CCC(=O)O)C(=O)O)C(=O)O)CC2)CCN(CC(=O)[O-])CC1.[68Ga+3] [^68Ga-HTK03027]

>  <experimental-system>
PSMA-expressing LNCAP cancer xenografts

>  <units-text>
% ID/g

>  <endpoint-result>
13.3

$$$$
>  <compound>
CCCCCC[C@H](NC(=O)[C@H]1CC[C@H](CNC(=O)CN2CCN(CC(=O)[O-])CCN(CC(=O)[O-])CCN(CC(=O)[O-])CC2)CC1)C(=O)NCCCC[C@H](NC(=O)N[C@@H](CCC(=O)O)C(=O)O)C(=O)O.[68Ga+3] [^68Ga-HTK03026]

>  <experimental-system>
PSMA-expressing LNCAP cancer xenografts

>  <units-text>
% ID/g

>  <endpoint-result>
12.5

$$$$

[P] O=C([O-])CN1CCN(CC(=O)[O-])CCN(CC(=O)NC[C@H]2CC[C@H](C(=O)N[C@@H](Cc3ccc4ccc5cccc6ccc3c4c56)C(=O)NCCCC[C@H](NC(=O)N[C@@H](CCC(=O)O)C(=O)O)C(=O)O)CC2)CCN(CC(=O)[O-])CC1.[68Ga+3] [^68Ga-HTK03029]
[Q] O=C([O-])CN1CCN(CC(=O)[O-])CCN(CC(=O)NC[C@H]2CC[C@H](C(=O)N[C@@H](Cc3c4ccccc4cc4ccccc34)C(=O)NCCCC[C@H](NC(=O)N[C@@H](CCC(=O)O)C(=O)O)C(=O)O)CC2)CCN(CC(=O)[O-])CC1.[68Ga+3] [^68Ga-HTK03041]
Select one. Lower Tissue (% ID/g): Tumor: P or Q Respond with the label that goes with your answer. P
(P: 13.9 % ID/g, Q: 23.1 % ID/g)

====

- System: PSMA-expressing LNCAP cancer xenografts
- experiment-description: Biodistribution of ^68Ga-labeled PSMA-targeting tracers
- Assay type: in vivo, mice
- measurement-context: 1 h post-injection
metric: Tissue (% ID/g): Kidneys

>  <compound>
O=C([O-])CN1CCN(CC(=O)[O-])CCN(CC(=O)NC[C@H]2CC[C@H](C(=O)N[C@@H](Cc3c4ccccc4cc4ccccc34)C(=O)NCCCC[C@H](NC(=O)N[C@@H](CCC(=O)O)C(=O)O)C(=O)O)CC2)CCN(CC(=O)[O-])CC1.[68Ga+3] [^68Ga-HTK03041]

>  <endpoint-result>
170

$$$$
>  <compound>
CCCCCC[C@H](NC(=O)[C@H]1CC[C@H](CNC(=O)CN2CCN(CC(=O)[O-])CCN(CC(=O)[O-])CCN(CC(=O)[O-])CC2)CC1)C(=O)NCCCC[C@H](NC(=O)N[C@@H](CCC(=O)O)C(=O)O)C(=O)O.[68Ga+3] [^68Ga-HTK03026]

>  <endpoint-result>
68.5

$$$$

[A] O=C([O-])CN1CCN(CC(=O)[O-])CCN(CC(=O)NC[C@H]2CC[C@H](C(=O)N[C@@H](Cc3ccc4ccc5cccc6ccc3c4c56)C(=O)NCCCC[C@H](NC(=O)N[C@@H](CCC(=O)O)C(=O)O)C(=O)O)CC2)CCN(CC(=O)[O-])CC1.[68Ga+3] [^68Ga-HTK03029]
[B] O=C([O-])CN1CCN(CC(=O)[O-])CCN(CC(=O)NC[C@H]2CC[C@H](C(=O)N[C@@H](Cc3ccc4cc5ccccc5cc4c3)C(=O)NCCCC[C@H](NC(=O)N[C@@H](CCC(=O)O)C(=O)O)C(=O)O)CC2)CCN(CC(=O)[O-])CC1.[68Ga+3] [^68Ga-HTK03027]
Between A and B , which one shows the larger Tissue (% ID/g): Kidneys value? // respond with label for picked entry A

Data credit: patent US12472272B2
